B1: library; a variant is named by its letters at N, in order (parent)
chain: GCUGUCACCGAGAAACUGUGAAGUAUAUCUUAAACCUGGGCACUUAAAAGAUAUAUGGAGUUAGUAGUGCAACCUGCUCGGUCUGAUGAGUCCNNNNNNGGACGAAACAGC

Variants of: B1
assay name: FACS-Seq fitted mean relative fluorescence mCherry/BFP with ligand (log10 relative fluorescence); HEK293T; ligand: cyclic di-GMP (c-di-GMP-II aptamer); ligand concentration (+) FACS-Seq: 1 mM; higher = higher reporter protein expression
recorded conditions: ligand present: yes
Each entry below lists one item and its recorded FACS-Seq fitted mean (log10) value.

1) AAGCCA: -0.278

[in] Using known records, supply FACS-Seq fitted mean (log10) for `AGGAUC`
[out] 0.137

[in] Give the measured FACS-Seq fitted mean (log10) for `CAAGUU`
[out] 0.078

[in] State its FACS-Seq fitted mean (log10) for this variant: `GUGAUU`
[out] -0.311

[in] Answer with reported FACS-Seq fitted mean (log10) of `CGUCUC`
[out] 0.327

[in] Please look at this variant and report its FACS-Seq fitted mean (log10): `AAUGAU`
[out] 0.206

[in] Provide one value: measured FACS-Seq fitted mean (log10) of `AGAAGG`
[out] 0.0586

[in] Provide only the value of recorded FACS-Seq fitted mean (log10) for `GAAAAU`
[out] 0.162

[in] Provide FACS-Seq fitted mean (log10) value for the following variant: `UGUGAC`
[out] 0.27

[in] Fill in reported FACS-Seq fitted mean (log10) for this entry: `CUAGAA`
[out] -0.134

[in] Fill in reported FACS-Seq fitted mean (log10) for this entry: `CCAGAA`
[out] -0.277

Recorded values, source the supplement of paper PMC6757056.
